# System: tracheal specimens excised from guinea pigs
# ASSAY: Inhibitory effect on PGF2α-induced contraction of tracheal specimens excised from guinea pigs (Magnus tube)
# Assay type: cell-based
# RECORDED_CONDITIONS: Cavia porcellus, dose required for relaxing PGF2α-induced contraction to 50 %; PGF2α final concentration: 1 µm; compounds used as hydrochloride; 3 specimens per group; read-out: PGF2α-induced contraction ED50
pEC50: −log10 of the molar value. Counter-ions that a name gives are not always drawn.
ASSAY_METRIC: pEC50

For orientation, consider the following solved cases.
1) O=S(=O)(NCCNCc1ccc2c(c1)OCO2)c1cccc2c(O)nccc12 [(4), hydrochloride]
5.30
2) O=S(=O)(NCCNCc1ccc2c(c1)OCO2)c1cccc2cnccc12
4.64

(I) CCOc1ccc(S(=O)(=O)N2CCCNCC2)c2cccnc12
(II) O=S(=O)(NCCN1CCN(Cc2ccc3c(c2)OCO3)CC1)c1cccc2cnccc12
Would you mind telling me which has the lower recorded pEC50 between I and II ? To answer, give the label that identifies your chosen option.
I

###

# Test system: tracheal specimens excised from guinea pigs
# ASSAY: Inhibitory effect on KCl-induced contraction of tracheal specimens excised from guinea pigs (Magnus tube)
# Format: cell-based
# RECORDED_CONDITIONS: Cavia porcellus; dose required for relaxing KCl-induced contraction to 50 %; final KCl concentration: 20 mM; 37 °C; compounds other than acid addition salts used as hydrochloride; 3 specimens per group; read-out: ED₅₀ Effect on KCl-induced contraction
# Procedure: The bronchial smooth muscle-relaxing action of the sulfonamide derivative of the present invention was evaluated by the effect on suppression of KCl-induced contraction and PGF2α-induced contraction of bronchial specimens excised from guinea pigs. […] A dose required for relaxing KCl-induced contraction to 50 %, i.e., ED₅₀ was calculated from the dose-response curve. […]
ASSAY_METRIC: EC50 (µM)

For orientation, consider the following solved cases.
1. O=S(=O)(NCCNCc1ccc2c(c1)OCO2)c1cccc2cnccc12
5.2
2. COc1ccc(CNCCNS(=O)(=O)c2ccc(Cl)c3ncccc23)cc1OC
160
3. COc1ccc(CNCCNS(=O)(=O)c2ccc(Cl)c3ncccc23)cc1
125
4. O=S(=O)(NCCN1CCCNCC1)c1cccc2cnccc12
22

(P) O=S(=O)(NCCNCc1ccc2c(c1)OCO2)c1ccc(Cl)c2ncccc12
(Q) O=S(=O)(NCCN1CCCN(Cc2ccc(Cl)cc2)CC1)c1ccc(Cl)c2ncccc12
(R) O=S(=O)(NCCNCCc1ccc2c(c1)OCO2)c1cccc2cnccc12
(S) CCOc1ccc(S(=O)(=O)NCCNCCc2ccc(OC)c(OC)c2)c2cccnc12
Order the records, beginning with the lowest EC50 and ending with the highest. A ranking is expressed here by listing the labels in the requested order.
R, P, Q, S
(R: 7.4 µM, P: 28 µM, Q: 68 µM, S: 125 µM)

###

# System: tracheal specimens excised from guinea pigs
# ASSAY: Inhibitory effect on KCl-induced contraction of tracheal specimens excised from guinea pigs (Magnus tube)
# Type: cell-based
# RECORDED_CONDITIONS: Cavia porcellus; dose required for relaxing KCl-induced contraction to 50 %; final KCl concentration: 20 mM; 37 °C; compounds other than acid addition salts used as hydrochloride; 3 specimens per group; read-out: ED₅₀ Effect on KCl-induced contraction
pEC50: −log10 of the molar value.
ASSAY_METRIC: pEC50

1) O=S(=O)(c1ccc(Cl)c2ncccc12)N1CCCNCC1
4.42

(A) O=S(=O)(NCCN1CCCNCC1)c1cccc2ncccc12
(B) O=S(=O)(c1ccc(Cl)c2ncccc12)N1CCNCC1
pEC50 comparison. Which is larger, A or B ? To answer, give the label that identifies your chosen option.
B
(B: 4.31, A: 4.04)

###

# System: tracheal specimens excised from guinea pigs
# ASSAY: Inhibitory effect on KCl-induced contraction of tracheal specimens excised from guinea pigs (Magnus tube)
# Assay type: cell-based
# RECORDED_CONDITIONS: Cavia porcellus; dose required for relaxing KCl-induced contraction to 50 %; final KCl concentration: 20 mM; 37 °C; compounds other than acid addition salts used as hydrochloride; 3 specimens per group; read-out: ED₅₀ Effect on KCl-induced contraction
pEC50: −log10 of the molar value. Counter-ions that a name gives are not always drawn.
ASSAY_METRIC: pEC50

For orientation, consider the following solved cases.
1. CCOc1ccc(S(=O)(=O)NCCNCc2ccccc2)c2cccnc12
3.98
2. O=S(=O)(NCCNCc1ccc2c(c1)OCO2)c1cccc2c(O)nccc12 [(4), hydrochloride]
5.00
3. CCOc1ccc(S(=O)(=O)NCCNCc2ccc3c(c2)OCO3)c2cccnc12
4.51
4. CCOc1ccc(S(=O)(=O)NCCNCCc2ccc(OC)cc2)c2cccnc12
4.46
5. O=S(=O)(NCCN1CCCN(Cc2ccc3c(c2)OCO3)CC1)c1cccc2ncccc12
4.08

(A) O=S(=O)(NCCNCc1cccc(Cl)c1)c1ccc(Cl)c2ncccc12
(B) O=S(=O)(NCCN1CCCN(Cc2ccc3c(c2)OCO3)CC1)c1ccc(Cl)c2ncccc12
pEC50 comparison. Which is larger, A or B ? To answer, give the label that identifies your chosen option.
B
(B: 4.59, A: 3.92)

###

# Tested on: tracheal specimens excised from guinea pigs
# ASSAY: Inhibitory effect on KCl-induced contraction of tracheal specimens excised from guinea pigs (Magnus tube)
# Assay type: cell-based
# RECORDED_CONDITIONS: Cavia porcellus; dose required for relaxing KCl-induced contraction to 50 %; final KCl concentration: 20 mM; 37 °C; compounds other than acid addition salts used as hydrochloride; 3 specimens per group; read-out: ED₅₀ Effect on KCl-induced contraction
# Experimental: The bronchial smooth muscle-relaxing action of the sulfonamide derivative of the present invention was evaluated by the effect on suppression of KCl-induced contraction and PGF2α-induced contraction of bronchial specimens excised from guinea pigs. […] A dose required for relaxing KCl-induced contraction to 50 %, i.e., ED₅₀ was calculated from the dose-response curve. […]
Where a name gives a salt, the structure may show the parent alone.
ASSAY_METRIC: EC50 (µM)

For orientation, consider the following solved cases.
1) O=S(=O)(c1cccc2ncccc12)N1CCCNCC1
79
2) COc1ccc(CCNCCNS(=O)(=O)c2ccc(Cl)c3ncccc23)cc1
28
3) CCOc1ccc(S(=O)(=O)NCCN2CCCN(Cc3ccc4c(c3)OCO4)CC2)c2cccnc12
37

(1) O=S(=O)(NCCN1CCN(Cc2ccc(Cl)cc2)CC1)c1ccc(Cl)c2ncccc12
(2) O=S(=O)(NCCN1CCNCC1)c1ccc(Cl)c2ncccc12
Would you mind telling me which has the lower recorded EC50 between 1 and 2 ? To answer, give the label that identifies your chosen option.
2
(2: 48 µM, 1: 78 µM)

(I) COc1ccc(CCN2CCCN(CCNS(=O)(=O)c3ccc(Cl)c4ncccc34)CC2)cc1OC
(II) CCOc1ccc(S(=O)(=O)N2CCCNCC2)c2cccnc12
(III) O=S(=O)(NCCNCCc1ccc2c(c1)OCO2)c1ccc(Cl)c2ncccc12
(IV) CCOc1ccc(S(=O)(=O)NCCNCc2ccc(OC)c(OC)c2)c2cccnc12
Reorder: EC50, max to min. A ranking is expressed here by listing the labels in the requested order.
IV, I, II, III

(1) CCOc1ccc(S(=O)(=O)NCCN2CCCN(CCc3ccc(OC)c(OC)c3)CC2)c2cccnc12
(2) O=S(=O)(NCCNCCc1ccc(C(F)(F)F)cc1)c1ccc(Cl)c2ncccc12
(3) CCOc1ccc(S(=O)(=O)NCCN2CCN(Cc3ccc4c(c3)OCO4)CC2)c2cccnc12
(4) O=S(=O)(NCCNCCc1ccc2c(c1)OCO2)c1cccc2c(O)nccc12 [(2), hydrochloride]
Reorder: EC50, max to min. A ranking is expressed here by listing the labels in the requested order.
1, 2, 3, 4

(1) O=S(=O)(NCCNCc1ccccc1)c1ccc(Cl)c2ncccc12
(2) CCOc1ccc(S(=O)(=O)N2CCNCC2)c2cccnc12
Would you mind telling me which has the lower recorded EC50 between 1 and 2 ? To answer, give the label that identifies your chosen option.
2

(a) COc1ccc(CCNCCNS(=O)(=O)c2ccc(Cl)c3ncccc23)cc1OC
(b) O=S(=O)(NCCN1CCN(Cc2ccc3c(c2)OCO3)CC1)c1cccc2cnccc12
(c) O=S(=O)(NCCNCCc1ccc(Cl)cc1)c1ccc(Cl)c2ncccc12
Reorder: EC50, max to min. A ranking is expressed here by listing the labels in the requested order.
a, c, b

(a) CCOc1ccc(S(=O)(=O)NCCNCCc2ccc(Cl)cc2)c2cccnc12
(b) O=S(=O)(NCCN1CCCN(Cc2ccc3c(c2)OCO3)CC1)c1cccc2cnccc12
EC50 comparison. Which is larger, a or b ? To answer, give the label that identifies your chosen option.
a

###

# Tested on: tracheal specimens excised from guinea pigs
# ASSAY: Inhibitory effect on PGF2α-induced contraction of tracheal specimens excised from guinea pigs (Magnus tube)
# Assay type: cell-based
# RECORDED_CONDITIONS: Cavia porcellus, dose required for relaxing PGF2α-induced contraction to 50 %; PGF2α final concentration: 1 µm; compounds used as hydrochloride; 3 specimens per group; read-out: PGF2α-induced contraction ED50
# Experimental: The bronchial smooth muscle-relaxing action of the sulfonamide derivative of the present invention was evaluated by the effect on suppression of KCl-induced contraction and PGF2α-induced contraction of bronchial specimens excised from guinea pigs. […]
Counter-ions that a name gives are not always drawn.
ASSAY_METRIC: EC50 (µM)

For orientation, consider the following solved cases.
1) O=S(=O)(c1ccc(Cl)c2ncccc12)N1CCCNCC1
65
2) O=S(=O)(NCCN1CCCNCC1)c1ccc(Cl)c2ncccc12
91
3) NC1CCCN(S(=O)(=O)c2cccc3cnccc23)C1 (stereo not shown) [Comparative compound (2), hydrochloride, reference compound]
93
4) CCCCCCN(CCN)S(=O)(=O)c1cccc2cnccc12 [Comparative compound (1), hydrochloride, reference compound]
101
5) O=S(=O)(NCCN1CCCN(Cc2ccc3c(c2)OCO3)CC1)c1ccc(Cl)c2ncccc12
74

(A) CCOc1ccc(S(=O)(=O)NCCN2CCCN(Cc3ccc4c(c3)OCO4)CC2)c2cccnc12
(B) O=S(=O)(NCCN1CCCN(Cc2ccc3c(c2)OCO3)CC1)c1cccc2cnccc12
Would you mind telling me which has the lower recorded EC50 between A and B ? To answer, give the label that identifies your chosen option.
B
